Assay: self-splicing fitness, log relative to wild type (ln ratio); higher = more splicing; Tetrahymena group I intron in knt gene, E. coli kanamycin selection, DiMSum; sequences stand for … in CUCUCU…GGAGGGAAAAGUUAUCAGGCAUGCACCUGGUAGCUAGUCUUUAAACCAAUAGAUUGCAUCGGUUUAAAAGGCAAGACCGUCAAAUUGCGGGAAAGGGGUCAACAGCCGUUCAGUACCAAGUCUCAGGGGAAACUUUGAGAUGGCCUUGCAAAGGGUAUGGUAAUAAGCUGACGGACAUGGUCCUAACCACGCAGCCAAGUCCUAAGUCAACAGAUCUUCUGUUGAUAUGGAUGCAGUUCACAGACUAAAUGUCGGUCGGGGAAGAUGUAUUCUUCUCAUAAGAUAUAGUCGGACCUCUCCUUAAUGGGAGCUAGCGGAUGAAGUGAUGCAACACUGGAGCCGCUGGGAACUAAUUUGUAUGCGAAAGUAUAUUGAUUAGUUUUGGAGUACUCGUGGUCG;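 note: selection with 25 µg/mL kanamycin versus none on LB agar overnight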
Conditions: 30 °C
Outcome: class 1 for self-splicing fitness (ln) of at least -3; class 0 for anything lower.

> print(dat)
              seq.string  discrete.label
 1  UAAAAGCAAUAUUACGGGUU         class 0
 2  CCACAGCAAUAUUACGUGUU         class 0
 3  CUCCAGCAAUAUUACGGUAA         class 1
 4  UGAUAGCAAUAUUACGUGCU         class 1
 5  CGGCAGCAAUAUUACGGAAA         class 0
 6  UCCCAGCAAUAUUACGCAAA         class 1
 7  AACCAGCAAUAUUACGAAGU         class 1
 8  CAGGAGCAAUAUUACGUGUA         class 0
 9  UAUCAGCAAUAUUACGAGCA         class 1
10  AGUGAGCAAUAUUACGGGUC         class 0
11  GAUGAGCAAUAUUACGACCG         class 1
12  GUAAAGCAAUAUUACGCGUA         class 1
13  CUCCAGCAAUAUUACGUAUG         class 1
14  GGCUAGCAAUAUUACGACAC         class 1
15  UCCCAGCAAUAUUACGGGGA         class 0
16  UCGUAGCAAUAUUACGGAGC         class 1
17  CAAGAGCAAUAUUACGUACU         class 0
18  AUGCAGCAAUAUUACGGACG         class 1
19  CGCCAGCAAUAUUACGACGU         class 1
20  GAAGAGCAAUAUUACGCGAC         class 0
21  UCAAAGCAAUAUUACGUACU         class 0
22  CGUGAGCAAUAUUACGUCCG         class 1
23  AUUUAGCAAUAUUACGGGCA         class 1
24  AAGAAGCAAUAUUACGCGCC         class 1
25  GAGCAGCAAUAUUACGACCU         class 1
26  AUCGAGCAAUAUUACGUUAA         class 0
27  CAACAGCAAUAUUACGAAUU         class 0
28  CCCUAGCAAUAUUACGUACA         class 1
29  AAACAGCAAUAUUACGUUUU         class 0
30  AUGUAGCAAUAUUACGUACG         class 1
31  UGCGAGCAAUAUUACGUUUU         class 0
32  ACGUAGCAAUAUUACGUCUU         class 0
33  AUGCAGCAAUAUUACGUCCG         class 1

====

Below: a set of entries, each annotated with reported self-splicing fitness (ln).
Assay: self-splicing fitness, log relative to wild type (ln ratio); higher = more splicing; Tetrahymena group I intron in knt gene, E. coli kanamycin selection, DiMSum; sequences stand for … in CUCUCU…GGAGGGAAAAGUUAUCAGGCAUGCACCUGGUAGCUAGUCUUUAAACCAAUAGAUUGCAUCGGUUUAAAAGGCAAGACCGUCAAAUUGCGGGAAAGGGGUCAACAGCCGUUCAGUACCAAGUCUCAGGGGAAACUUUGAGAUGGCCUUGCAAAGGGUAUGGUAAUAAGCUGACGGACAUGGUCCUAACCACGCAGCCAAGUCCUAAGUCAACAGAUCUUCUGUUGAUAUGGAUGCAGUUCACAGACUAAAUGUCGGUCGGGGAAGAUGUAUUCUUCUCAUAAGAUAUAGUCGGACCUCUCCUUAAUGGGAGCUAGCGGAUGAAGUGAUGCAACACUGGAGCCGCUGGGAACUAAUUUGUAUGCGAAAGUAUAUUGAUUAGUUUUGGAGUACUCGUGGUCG
Settings: 37 °C
REPORTED PROPERTY: self-splicing fitness (ln)

> print(dat)
             seq.string           reported.property  readout.value
1  UCUAAGCAAUAUUACGGUUA  self-splicing fitness (ln)          -1.76
2  CAUGAGCAAUAUUACGGGUA  self-splicing fitness (ln)          -2.23
3  GAGAAGCAAUAUUACGGAUU  self-splicing fitness (ln)          -1.63
4  GCCCAGCAAUAUUACGGCUG  self-splicing fitness (ln)          -2.22
5  GUAGAGCAAUAUUACGUCUA  self-splicing fitness (ln)         -0.919
6  UAGAAGCAAUAUUACGCGGG  self-splicing fitness (ln)           -1.1
7  UACGAGCAAUAUUACGGCGC  self-splicing fitness (ln)           -2.4
8  ACUAAGCAAUAUUACGCGAA  self-splicing fitness (ln)          -1.22

====

Test: self-splicing fitness, log relative to wild type (ln ratio); higher = more splicing; Tetrahymena group I intron in knt gene, E. coli kanamycin selection, DiMSum; sequences stand for … in CUCUCU…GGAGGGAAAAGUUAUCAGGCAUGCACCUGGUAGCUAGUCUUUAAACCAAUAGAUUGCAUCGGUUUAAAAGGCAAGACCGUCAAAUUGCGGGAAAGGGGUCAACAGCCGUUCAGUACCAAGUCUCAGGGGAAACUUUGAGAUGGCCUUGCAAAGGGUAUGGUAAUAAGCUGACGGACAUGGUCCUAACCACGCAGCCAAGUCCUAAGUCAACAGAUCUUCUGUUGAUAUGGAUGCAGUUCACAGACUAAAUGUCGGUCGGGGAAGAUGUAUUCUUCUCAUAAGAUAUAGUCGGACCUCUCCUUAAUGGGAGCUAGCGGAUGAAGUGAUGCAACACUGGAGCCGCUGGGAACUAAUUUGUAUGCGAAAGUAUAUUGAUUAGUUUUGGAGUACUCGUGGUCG
Details: 37 °C
Category | rule: reported self-splicing fitness (ln) within range, see low bracket (below -2), middle bracket (-2 to below -1), high bracket (-1 or more)

> print(dat)
              seq.string  discrete.label
 1  AGCAAGCAAUAUUACGCUGG     low bracket
 2  GGUAAGCAAUAUUACGGAUA  middle bracket
 3  UAUGAGCAAUAUUACGUACC  middle bracket
 4  UCCUAGCAAUAUUACGUCAA  middle bracket
 5  GCGAAGCAAUAUUACGUCUA  middle bracket
 6  UUUGAGCAAUAUUACGUCAU  middle bracket
 7  GCCUAGCAAUAUUACGUAUC    high bracket
 8  CGAAAGCAAUAUUACGGACA    high bracket
 9  CGUUAGCAAUAUUACGGUUA  middle bracket
10  UAGUAGCAAUAUUACGCGUA  middle bracket
11  GUCGAGCAAUAUUACGAGCG  middle bracket
12  GAUCAGCAAUAUUACGCACU    high bracket
13  ACCAAGCAAUAUUACGGCCC    high bracket
14  AUUCAGCAAUAUUACGUGUU  middle bracket
15  ACCUAGCAAUAUUACGCCCG  middle bracket
16  AAAUAGCAAUAUUACGACGA    high bracket
17  CGCGAGCAAUAUUACGUACA     low bracket
18  UUAAAGCAAUAUUACGCUUG    high bracket
19  CCGCAGCAAUAUUACGACUA     low bracket
20  UAUAAGCAAUAUUACGUUUG  middle bracket
21  GUCGAGCAAUAUUACGUUUG     low bracket
22  CUCCAGCAAUAUUACGCGGG  middle bracket
23  AUGUAGCAAUAUUACGGAAU    high bracket
24  GCCCAGCAAUAUUACGCAAC    high bracket
25  UCACAGCAAUAUUACGUUAG  middle bracket
26  ACAAAGCAAUAUUACGGGGU     low bracket
27  CUCCAGCAAUAUUACGGACU     low bracket
28  AUACAGCAAUAUUACGUAGC     low bracket
29  AAGAAGCAAUAUUACGAGCA    high bracket
30  AGCCAGCAAUAUUACGGAAG    high bracket
